System: K562
PROTOCOL: NCI tumour cell line growth inhibition, 48 h
Calls of active or inactive are those of the source. No stated cut-off is given here; in the data, active = GI50 up to about 1.1 µM and inactive = higher.
Pick one: True for active, False for inactive

A selection of reference data follows.
{"columns": ["COMPOUND", "ASSIGNED_CATEGORY"],
 "data": [
  ["COc1ccc(C(=O)Nc2ccccc2C#N)cc1", "False"],
  ["CC(=O)OC(Cc1cc(C=C(C(F)(F)F)C(F)(F)F)cc(C)n1)(C(F)(F)F)C(F)(F)F", "True"],
  ["O=c1[nH]c(=O)n(C2CC(O)C(COP(=O)(O)OC3CC(n4cc(F)c(=O)[nH]c4=O)OC3COP(=O)(O)OC3CC(n4cc(F)c(=O)[nH]c4=O)OC3COP(=O)(O)OC3CC(n4cc(F)c(=O)[nH]c4=O)OC3COP(=O)(O)OC3CC(n4cc(F)c(=O)[nH]c4=O)OC3COP(=O)(O)OC3CC(n4cc(F)c(=O)[nH]c4=O)OC3COP(=O)(O)OC3CC(n4cc(F)c(=O)[nH]c4=O)OC3COP(=O)(O)OC3CC(n4cc(F)c(=O)[nH]c4=O)OC3COP(=O)(O)OC3CC(n4cc(F)c(=O)[nH]c4=O)OC3COP(=O)(O)OC3CC(n4cc(F)c(=O)[nH]c4=O)OC3CO)O2)cc1F (stereo unspecified)", "False"],
  ["OCCN(CCO)c1ccc2c(C(F)(F)F)cc(C(F)(F)F)nc2n1", "False"],
  ["O=C(NCCC1CNc2ccccc21)OCc1ccccc1 (stereo unspecified)", "False"]
]}

Please look at the following compound next.
Entry O=C(CCc1cccc(O)c1)NCCc1cccc(O)c1 : call = ? False

====

Test system: EKVX
PROTOCOL: NCI tumour cell line growth inhibition, 48 h
Activity calls are given as the source filed them. No stated cut-off is given here; in the data, active = GI50 up to about 1.1 µM and inactive = higher.
Pick one: active, inactive

{"columns": ["COMPOUND", "ASSIGNED_CATEGORY"],
 "data": [
  ["O=C(O)C1CCC(=O)N1C(=O)C(Cl)c1ccccc1 (stereo not drawn)", "inactive"]
]}

Entry COC1=Nc2ccccc2S(=O)(=O)C=C1 : call = ? inactive

Entry Cc1cc(C)c2c(=O)n(CC(O)CN3CCN(CCOCCO)CC3)sc2n1 (stereo not drawn) : call = ? inactive

Entry Cc1cc(C)nc(NS(=O)(=O)c2ccc(Nc3c4ccccc4nc4c(C(=O)NNCCO)cccc34)cc2)n1 : call = ? inactive

====

Tested on: SK-MEL-28
PROTOCOL: NCI tumour cell line growth inhibition, 48 h
Active and inactive are the calls of the source. Rule as the data show it: active = GI50 up to about 1.1 µM and inactive = higher.
Pick one: active, inactive

A selection of reference data follows.
{"columns": ["MOLECULE", "ASSIGNED_CATEGORY"],
 "data": [
  ["N#Cc1c(N)nc(Nc2cccc3ccccc23)c(C#N)c1C#N", "inactive"],
  ["O=C(O)c1cc2c(cc1S(=O)(=O)O)C1C(C3C2C2(Cl)C(Cl)=C(Cl)C3(Cl)C2(Cl)Cl)C2(Cl)C(Cl)=C(Cl)C1(Cl)C2(Cl)Cl (stereo unspecified)", "inactive"],
  ["Cc1cc2c(O)nc(N)nc2nc1C", "inactive"],
  ["C/C(=N\\NC(=S)N1CCCCC1)c1cccc(C)n1", "active"],
  ["Cc1ccn2c(=O)cc(-c3ccccc3)nc2c1", "inactive"]
]}

Entry CN1CCN(c2nc(N)c(Br)c(Cl)n2)CC1 : call = ? inactive

Entry CC(=O)Nc1ccc(C(=O)NN2C(=O)C(Cl)C2c2ccccc2)cc1 (stereo unspecified) : call = ? inactive

Entry OCCSCC/C(=N\N=C(/CCSCCO)c1ccccc1)c1ccccc1 : call = ? inactive

Entry O=C(c1c(Cl)cc(Cl)cc1Cl)N(Cc1cccnc1)C(=S)N(Cc1cccnc1)C(=O)c1c(Cl)cc(Cl)cc1Cl : call = ? inactive

Entry C/C(=C\CO)CC/C=C(\C)CNc1c(F)c(F)c(F)c(F)c1F : call = ? inactive

Entry O=C1C(Cl)C(c2cccc([N+](=O)[O-])c2)N1n1cnc2ccccc2c1=O (stereo unspecified) : call = ? inactive

Entry COC(=O)c1cc2ccccc2c2nc3ccccc3c(Cl)c12 : call = ? inactive

Entry NC(=O)SCC(=O)Nc1ccc2ncccc2c1 : call = ? inactive

Entry CO[C@H](C)[C@](O)(C(=O)OCC1=CCN2CC[C@@H](O)[C@H]12)C(C)C : call = ? inactive

Entry Cc1ccc(C2=NO[C@@H]3C(=O)N(c4ccc(Cc5ccc(N6C(=O)[C@H]7C(c8ccc(C)cc8)=NO[C@H]7C6=O)cc5)cc4)C(=O)[C@H]23)cc1 : call = ? inactive

Entry O=C(O)c1ccccc1CN1CCCC(C(=O)O)C1 (stereo unspecified) : call = ? inactive
